Biological target: CB2 receptor (Homo sapiens)
Sequence (P34972 whole entry): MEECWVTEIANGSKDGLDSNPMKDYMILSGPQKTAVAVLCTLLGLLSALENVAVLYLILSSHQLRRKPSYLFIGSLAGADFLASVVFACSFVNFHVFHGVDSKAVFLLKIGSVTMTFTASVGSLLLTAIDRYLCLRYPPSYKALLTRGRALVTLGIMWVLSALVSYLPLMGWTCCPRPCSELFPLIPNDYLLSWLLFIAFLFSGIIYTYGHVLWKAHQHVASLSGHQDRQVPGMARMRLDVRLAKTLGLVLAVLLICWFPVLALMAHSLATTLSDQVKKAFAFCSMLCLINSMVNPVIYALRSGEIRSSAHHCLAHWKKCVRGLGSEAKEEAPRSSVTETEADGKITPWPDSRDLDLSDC
Sequence (P32121 whole entry partner): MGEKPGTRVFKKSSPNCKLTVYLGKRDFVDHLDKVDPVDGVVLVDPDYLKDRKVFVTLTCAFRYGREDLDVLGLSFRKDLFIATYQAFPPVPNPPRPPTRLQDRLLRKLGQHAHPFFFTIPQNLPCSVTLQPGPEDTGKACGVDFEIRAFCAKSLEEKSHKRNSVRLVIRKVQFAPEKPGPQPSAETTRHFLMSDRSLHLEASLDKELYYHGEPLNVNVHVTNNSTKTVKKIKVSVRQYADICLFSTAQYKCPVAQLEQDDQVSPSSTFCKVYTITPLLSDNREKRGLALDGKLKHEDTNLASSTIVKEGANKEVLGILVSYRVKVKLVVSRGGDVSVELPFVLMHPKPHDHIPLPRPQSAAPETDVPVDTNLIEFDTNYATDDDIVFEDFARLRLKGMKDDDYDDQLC
Assay: NanoBiT βarr2 recruitment bioassay at CB2 (HEK 293T cells stably expressing CB2‐βarr2)
Conditions: read-out: EC 50 at CB2; βarr2 recruitment, three‐parameter logistic fit; interval in brackets
measurementName: pEC50
In simple prose, pEC50 is minus the logarithm base ten of a concentration in moles per litre.

### Prompt I would be grateful if you could share the reported pEC50 for CCCCCn1cc(C(=O)c2cccc3ccccc23)c2ccccc21 .
### Response 8.23

All figures here come from paper PMC12209699.
